Reported EC50 values are given for each entry in this list.
# targetOrSystem: 5-HT1A receptor (Rattus norvegicus)
# Construct: Hippocampal homogenates (15 μg/mL) were added to each tube as the 5-HT1A receptor source; from tissue; host or cells: rat hippocampus (male Sprague-Dawley), membrane homogenate
# Sequence (P19327 1-422): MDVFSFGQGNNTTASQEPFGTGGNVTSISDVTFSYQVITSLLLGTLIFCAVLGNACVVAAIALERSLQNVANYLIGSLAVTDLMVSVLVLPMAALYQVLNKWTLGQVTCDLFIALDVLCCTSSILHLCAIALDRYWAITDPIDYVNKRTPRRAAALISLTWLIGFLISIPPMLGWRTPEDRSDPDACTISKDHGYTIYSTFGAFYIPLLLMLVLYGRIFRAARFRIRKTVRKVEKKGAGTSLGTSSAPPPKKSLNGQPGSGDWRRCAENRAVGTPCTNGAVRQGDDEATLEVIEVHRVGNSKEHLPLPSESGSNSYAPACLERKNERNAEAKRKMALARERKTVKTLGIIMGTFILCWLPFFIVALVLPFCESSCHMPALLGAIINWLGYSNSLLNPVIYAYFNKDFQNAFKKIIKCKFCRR
# assayProtocol: Antagonist activity for the 5-HT1A receptor, [35S]GTPγS assay in hippocampal homogenates
# Format: biochemical
# settings: antagonistic activity, 8-OH-DPAT 1.4 × 10^−7 M, mean ± SEM
The response must be a number in nM with no trailing unit.

Cc1cc(OCCN2CCN(c3cccc(Cl)c3Cl)CC2)c2c(C)cc(=O)oc2c1	366000

Query: // Input: CC(=O)c1c(OCCCCCN2CCN(c3cccc(F)c3)CC2)ccc2c(C)cc(=O)oc12 . Output its EC50 only.
Response: 33900

Query: // Input: CC(=O)c1c(OCCN2CCN(c3ccccc3Br)CC2)ccc2c(C)cc(=O)oc12 . Output its EC50 only.
Response: 46800

Query: // Input: CC(=O)c1c(OCCCCCN2CCN(c3cc(C)cc(C)c3)CC2)ccc2c(C)cc(=O)oc12 . Output its EC50 only.
Response: 32900

Query: // Input: Cc1cc(OCCCCCN2CCN(c3ccccc3C#N)CC2)c2c(C)cc(=O)oc2c1 . Output its EC50 only.
Response: 74700

Query: // Input: Cc1cc(OCCCCCN2CCN(c3ccccc3F)CC2)c2c(C)cc(=O)oc2c1 . Output its EC50 only.
Response: 980

Query: // Input: COc1ccccc1N1CCN(CCCCCOc2cc(C)cc3oc(=O)cc(C)c23)CC1 . Output its EC50 only.
Response: 29.4

Query: // Input: CC(=O)c1c(C)cc2oc(=O)cc(C)c2c1OCCN1CCN(c2ccccc2C#N)CC1 . Output its EC50 only.
Response: 538

###

assayEndpoint: melting point

COc1cccc(N2CCN(CCCCCOc3cc(C)cc4oc(=O)cc(C)c34)CC2)c1	103 to 105 °C

Query: // Input: CC(=O)c1c(OCCBr)ccc2c(C)cc(=O)oc12 . Output its melting point only.
Response: 140 to 142 °C

Query: // Input: Cc1cc(OCCN2CCN(c3ccccc3Br)CC2)c2c(C)cc(=O)oc2c1 . Output its melting point only.
Response: 129 to 130 °C

Query: // Input: CC(=O)c1c(C)cc2oc(=O)cc(C)c2c1OCCCCCBr . Output its melting point only.
Response: 78 to 80 °C

Query: // Input: CC(=O)c1c(OCCN2CCN(c3ccccc3C#N)CC2)ccc2c(C)cc(=O)oc12 . Output its melting point only.
Response: 155 to 157 °C

Query: // Input: CC(=O)c1c(OCCCCCN2CCN(c3cccc(Cl)c3Cl)CC2)ccc2c(C)cc(=O)oc12 . Output its melting point only.
Response: 137 to 139 °C

Query: // Input: CC(=O)c1c(C)cc2oc(=O)cc(C)c2c1OCCN1CCN(c2cccc(Br)c2)CC1 . Output its melting point only.
Response: 127 to 128 °C

Query: // Input: CC(=O)c1c(OCCN2CCN(c3cc(C)cc(C)c3)CC2)ccc2c(C)cc(=O)oc12 . Output its melting point only.
Response: 120 to 121 °C

Query: // Input: Cc1cc(OCCN2CCN(c3cccc(Br)c3)CC2)c2c(C)cc(=O)oc2c1 . Output its melting point only.
Response: 126 to 127 °C

Query: // Input: Cc1cc(OCCCCCN2CCN(c3cccc(F)c3)CC2)c2c(C)cc(=O)oc2c1 . Output its melting point only.
Response: 101 to 102 °C

Query: // Input: CC(=O)c1c(OCCN2CCN(c3cccc(Br)c3)CC2)ccc2c(C)cc(=O)oc12 . Output its melting point only.
Response: 110 to 112 °C

###

A set of compounds tested on UniProt P19327, with measured pIC50:
Scale: negative log10 of molar concentration, which is what pIC50 denotes.

CC(=O)c1c(C)cc2oc(=O)cc(C)c2c1OCCN1CCN(c2cccc(F)c2)CC1	6.30

Query: Retrieve pIC50 on UniProt P19327; query CC(=O)c1c(OCCCCCN2CCN(c3ccccc3Br)CC2)ccc2c(C)cc(=O)oc12
Response: 4.50

Query: Retrieve pIC50 on UniProt P19327; query COc1ccccc1N1CCN(CCOc2ccc3c(C)cc(=O)oc3c2C(C)=O)CC1
Response: 5.50

Query: Retrieve pIC50 on UniProt P19327; query CC(=O)c1c(OCCN2CCN(c3ccccc3C#N)CC2)ccc2c(C)cc(=O)oc12
Response: 5.10

###

assayEndpoint: melting point

COc1ccccc1N1CCN(CCCCCOc2ccc3c(C)cc(=O)oc3c2C(C)=O)CC1 [Compound 5a]	126 to 128 °C
CC(=O)c1c(OCCN2CCN(c3ccccc3Br)CC2)ccc2c(C)cc(=O)oc12 [Compound 6f]	145 to 147 °C
COc1ccccc1N1CCN(CCOc2cc(C)cc3oc(=O)cc(C)c23)CC1 [Compound 2a]	146 to 148 °C

Query: // Input: CC(=O)c1c(C)cc2oc(=O)cc(C)c2c1OCCCCCN1CCN(c2ccccc2F)CC1 [Compound 3b] . Output its melting point only.
Response: 137 to 139 °C

###

# targetOrSystem: 5-HT2A receptor (Rattus norvegicus, UniProt P14842)
# Construct: from tissue; host or cells: rat frontal cortex (male SD), membrane homogenate
# Sequence (P14842 whole entry): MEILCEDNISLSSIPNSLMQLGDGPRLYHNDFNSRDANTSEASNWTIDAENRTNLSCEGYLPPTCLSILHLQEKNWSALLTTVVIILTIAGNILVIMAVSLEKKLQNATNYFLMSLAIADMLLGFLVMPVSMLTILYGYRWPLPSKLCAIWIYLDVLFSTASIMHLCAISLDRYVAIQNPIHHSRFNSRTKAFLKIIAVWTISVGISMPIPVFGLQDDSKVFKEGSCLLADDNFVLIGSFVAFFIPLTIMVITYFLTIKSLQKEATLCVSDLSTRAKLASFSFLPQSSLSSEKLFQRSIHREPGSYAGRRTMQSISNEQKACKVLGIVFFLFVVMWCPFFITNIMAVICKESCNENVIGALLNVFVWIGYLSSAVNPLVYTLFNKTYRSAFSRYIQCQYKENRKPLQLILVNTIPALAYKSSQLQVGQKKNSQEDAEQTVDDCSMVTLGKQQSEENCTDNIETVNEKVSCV
# assayProtocol: 5-HT2A competition binding assay, [3H]ketanserin, frontal cortex homogenates
# settings: [3H]ketanserin 1 nM, read-out: Ki (nM ± SEM) (converted)
Strictly below 3000 nM in Ki: Fulfilled. Otherwise: Not fulfilled.

Example results:
CC(=O)c1c(C)cc2oc(=O)cc(C)c2c1OCCCCCN1CCN(c2cccc(Br)c2)CC1	Fulfilled
COc1ccccc1N1CCN(CCOc2c(C(C)=O)c(C)cc3oc(=O)cc(C)c23)CC1	Not fulfilled
CC(=O)c1c(OCCN2CCN(c3ccccc3F)CC2)ccc2c(C)cc(=O)oc12	Fulfilled

Query: Is Ki of Cc1cc(OCCCCCN2CCN(c3ccccc3Br)CC2)c2c(C)cc(=O)oc2c1 strictly below 3000 nM?
Response: Fulfilled

Query: Is Ki of Cc1ccc(C)c(N2CCN(CCOc3cc(C)cc4oc(=O)cc(C)c34)CC2)c1 strictly below 3000 nM?
Response: Not fulfilled

Query: Is Ki of COc1cccc(N2CCN(CCOc3c(C(C)=O)c(C)cc4oc(=O)cc(C)c34)CC2)c1 strictly below 3000 nM?
Response: Fulfilled

Query: Is Ki of CC(=O)c1c(OCCN2CCN(c3cccc(Cl)c3Cl)CC2)ccc2c(C)cc(=O)oc12 strictly below 3000 nM?
Response: Fulfilled

###

# targetOrSystem: 5-HT2A receptor (Rattus norvegicus, UniProt P14842)
# Construct: from tissue; host or cells: rat frontal cortex (male SD), membrane homogenate
# assayProtocol: 5-HT2A competition binding assay, [3H]ketanserin, frontal cortex homogenates
# settings: [3H]ketanserin 1 nM, read-out: pKi (M ± SEM) (converted)
# Method: Male SD rats were decapitated and their brains removed and placed on ice. Frontal cortices were homogenized with a glass homogenizer in 30 vol ice-cold homogenization buffer (50 mM Tris-HCl. 1 mM EDTA. 5 mM MgCl2. pH 7.4). Next, the homogenate was centrifuged at 20,000× g for 15 min at 4 °C. […] Non-specific binding was determined in the presence of 10 μM mianserin. […] Filter-bound radioactivity was counted in a MicroBeta^2 Microplate Counter. […]
Strictly below 900 nM in Ki: 1. Otherwise: 0.

Example results:
COc1ccccc1N1CCN(CCCCCOc2cc(C)cc3oc(=O)cc(C)c23)CC1 [Compound 1a]	1
CC(=O)c1c(OCCCCCN2CCN(c3ccccc3Br)CC2)ccc2c(C)cc(=O)oc12 [Compound 5f]	1
COc1cccc(N2CCN(CCOc3ccc4c(C)cc(=O)oc4c3C(C)=O)CC2)c1 [Compound 6c]	0
CC(=O)c1c(OCCCCCN2CCN(c3cccc(Cl)c3Cl)CC2)ccc2c(C)cc(=O)oc12 [Compound 5i]	1
CC(=O)c1c(C)cc2oc(=O)cc(C)c2c1OCCCCCN1CCN(c2ccccc2F)CC1 [Compound 3b]	0
COc1cccc(N2CCN(CCOc3cc(C)cc4oc(=O)cc(C)c34)CC2)c1 [Compound 2c]	1

Please look at the following compound next.
Query: Is Ki of Cc1ccc(C)c(N2CCN(CCOc3cc(C)cc4oc(=O)cc(C)c34)CC2)c1 [Compound 2d] strictly below 900 nM?
Response: 0
